Data provenance: PubChem BioAssay (NCI)

Test system: PC-3 prostate
Test protocol: NCI tumour cell line growth inhibition, 48 h
This section presents compounds with their documented TGI values.

// sample CCOc1ccc2c(c1)C(/C(C(Cl)=C(Cl)Cl)=[N+](/[O-])OC(=O)c1ccccc1)=N2 , its TGI was > 100 µM

// sample N=C1C=CC(=C(c2ccc(N)cc2)c2ccc(N)cc2)C=C1 , its TGI was 12.4 µM

// sample Cc1cc(N(CCC#N)S(=O)(=O)c2ccccc2)ccc1C=Nc1ccc(C(=O)O)cc1 , its TGI was > 100 µM

// sample Cc1nc(N)c(N2CCN(S(=O)(=O)N(Cc3ccccc3)Cc3ccccc3)CC2)c(=O)[nH]1 , its TGI was 46.5 µM

// sample CCN(CC)CCOc1nc2ccccc2c2c1-c1ccc(OC)cc1C2=O , its TGI was 23.3 µM

// sample Cc1cn(C2CC(O)C(Cn3nncc3Cn3nc(Br)c(=O)[nH]c3=O)O2)c(=O)[nH]c1=O (stereo not given) , its TGI was > 100 µM

// sample Cc1cc(N(CCC#N)CCC#N)ccc1/C(N=Nc1ccc(C(=O)O)cc1)=N\NC(=O)c1ccccc1 , its TGI was > 100 µM

// sample COc1nn(C)cc1Nc1nccc(-c2c[nH]c3c(NC(=O)[C@@H](C)N4CCN(C)CC4)cccc23)n1 , its TGI was > 100 µM

// sample COC(=O)Nc1nc2ccc(C(=O)c3cccc(I)c3)cc2[nH]1 , its TGI was 6.18 µM

// sample OCc1ccc2c(c1)CC1(Cc3ccccc3C1)C2 , its TGI was 33.5 µM

// sample CCCCCCc1ccc(CCCCCCCC(=O)O)o1 , its TGI was > 100 µM

// sample N#C/C(=C\c1ccc[nH]1)c1cc(-c2ccc(Cl)cc2)nn1-c1ccccc1 , its TGI was 23.1 µM

// sample Cn1nc(C(F)(F)F)cc1-c1cc(Cl)c(OCc2ccc(Cl)cc2)c(-c2ccc(Cl)c(C(F)(F)F)c2)c1O , its TGI was 5.09 µM

// sample O=c1c2cccnc2oc2c(Cl)cc(-c3nn[nH]n3)cc12 , its TGI was > 100 µM
